- target: GST-Bcl-2 (Homo sapiens)
- Sequence (P10415 whole entry): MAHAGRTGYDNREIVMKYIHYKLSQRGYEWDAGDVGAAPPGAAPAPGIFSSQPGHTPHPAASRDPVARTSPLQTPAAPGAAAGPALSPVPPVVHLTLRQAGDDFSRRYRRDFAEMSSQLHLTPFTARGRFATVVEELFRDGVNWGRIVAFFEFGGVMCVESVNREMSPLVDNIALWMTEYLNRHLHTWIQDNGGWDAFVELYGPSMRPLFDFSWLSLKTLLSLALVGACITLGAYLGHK
- procedure-text: TR-FRET binding assay, GST-Bcl-2 with F-Bak peptide probe
- conditions-used: TR-FRET Binding Affinity
readout-label: Ki

Some solved cases for reference:
{"molecule": "CC1(C)CCC(CN2CCN(c3ccc(C(=O)NS(=O)(=O)c4cnc(OC[C@@H]5CCN(C(CF)CF)C5)c(Cl)c4)c(Oc4cccc5[nH]ncc45)c3)CC2)=C(c2ccc(Cl)cc2)C1", "readout-label": "Ki", "result": "0.112 nM"}
{"molecule": "CC1(C)CCC(CN2CCN(c3ccc(C(=O)NS(=O)(=O)c4ccc(OCC5CCOCC5)c(Cl)c4)c(Oc4cccc5[nH]ncc45)c3)CC2)=C(c2ccc(Cl)cc2)C1", "readout-label": "Ki", "result": "< 0.01 nM"}
{"molecule": "CC1(C)CCC(CN2CCN(c3ccc(C(=O)NS(=O)(=O)c4cnc(OC[C@@H]5CN(C6CC6)CCO5)c(Cl)c4)c(Oc4cccc5[nH]ncc45)c3)CC2)=C(c2ccc(Cl)cc2)C1", "readout-label": "Ki", "result": "< 0.01 nM"}
{"molecule": "CC1(C)CCC(CN2CCN(c3ccc(C(=O)NS(=O)(=O)c4ccc(N[C@H]5CC[C@H](N6CCOCC6)CC5)c([N+](=O)[O-])c4)c(Oc4cccc5[nH]cnc45)c3)CC2)=C(c2ccc(Cl)cc2)C1", "readout-label": "Ki", "result": "< 0.01 nM"}
{"molecule": "CC1(C)CCC(CN2CCN(c3ccc(C(=O)NS(=O)(=O)c4ccc(NCC5CCOCC5)c([N+](=O)[O-])c4)c(Oc4ccccc4)c3)CC2)=C(c2ccc(Cl)cc2)C1", "readout-label": "Ki", "result": "0.049 nM"}

For CC1(C)CCC(CN2CCN(c3ccc(C(=O)NS(=O)(=O)c4ccc(NC[C@H]5CN(C6COC6)CCO5)c([N+](=O)[O-])c4)c(Oc4cccc5[nH]ncc45)c3)CC2)=C(c2ccc(Cl)cc2)C1 , what is its reported Ki?
< 0.01 nM

For CC1(C)CCC(CN2CCN(c3ccc(C(=O)NS(=O)(=O)c4cnc(OCC5(F)CCC(O)CC5)c(Cl)c4)c(Oc4cccc5[nH]ncc45)c3)CC2)=C(c2ccc(Cl)cc2)C1 (stereo not shown) , what is its reported Ki?
< 0.01 nM

---

Listed next: entries and their corresponding pKi.
- target: GST-Bcl-2 (Homo sapiens)
- procedure-text: TR-FRET binding assay, GST-Bcl-2 with F-Bak peptide probe
- conditions-used: TR-FRET Binding Affinity
Please keep in mind that pKi is minus log10 of the molar concentration; only the number is needed.

For CC1(C)CCC(CN2CCN(c3ccc(C(=O)NS(=O)(=O)c4cnc(OCC5CCOCC5)c(F)c4)c(Oc4cccc5[nH]ncc45)c3)CC2)=C(c2ccc(Cl)cc2)C1 [Example 487] , what is its reported pKi?
10.48

For CC1(C)CCC(CN2CCN(c3ccc(C(=O)NS(=O)(=O)c4ccc(NC[C@H]5CC[C@H](C#N)CC5)c([N+](=O)[O-])c4)c(Oc4cccc5[nH]cnc45)c3)CC2)=C(c2ccc(Cl)cc2)C1 [Example 462] , what is its reported pKi?
10.59

---

- target: GST-Bcl-XL (Homo sapiens)
- Sequence (Q07817 whole entry): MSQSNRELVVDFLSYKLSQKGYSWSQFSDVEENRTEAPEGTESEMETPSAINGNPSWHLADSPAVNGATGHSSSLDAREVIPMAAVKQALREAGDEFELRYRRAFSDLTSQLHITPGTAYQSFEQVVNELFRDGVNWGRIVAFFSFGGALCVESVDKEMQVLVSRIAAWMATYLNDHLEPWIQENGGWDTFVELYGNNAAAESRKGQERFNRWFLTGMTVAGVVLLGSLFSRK
- procedure-text: TR-FRET binding assay, GST-Bcl-XL with F-Bak peptide probe
- conditions-used: TR-FRET Binding Affinity, GST-Bcl-XL, F-Bak peptide probe
readout-label: pKi
Please keep in mind that pKi is minus log10 of the molar concentration; only the number is needed.

{"compound": "CN(C)C1CCC(Nc2ccc(S(=O)(=O)NC(=O)c3ccc(N4CCN(CC5=C(c6ccc(Cl)cc6)CC(C)(C)CC5)CC4)cc3Oc3cccc4[nH]ccc34)cc2[N+](=O)[O-])CC1 (stereo not shown)", "pKi": 8.29}
{"compound": "CN(C)CCOc1ccc(-c2ccc(Cl)cc2)c(CN2CCN(c3ccc(C(=O)NS(=O)(=O)c4ccc(NC5CCN(C)CC5)c([N+](=O)[O-])c4)c(Oc4ccccc4)c3)CC2)c1", "pKi": 9.55}
{"compound": "CN(C)CCCOc1ccc(S(=O)(=O)NC(=O)c2ccc(N3CCN(CC4=C(c5ccc(Cl)cc5)CC(C)(C)CC4)CC3)cc2Oc2ccc3[nH]ccc3c2)cc1[N+](=O)[O-]", "pKi": 8.08}
{"compound": "CN(C)CCCN(C)c1ccc(S(=O)(=O)NC(=O)c2ccc(N3CCN(Cc4ccccc4-c4ccc(Cl)cc4)CC3)cc2Oc2ccccc2)cc1[N+](=O)[O-]", "pKi": 6.39}

# next compound below
For COCCNc1ccc(S(=O)(=O)NC(=O)c2ccc(N3CCN(CC4=C(c5ccc(Cl)cc5)CC(C)(C)CC4)CC3)cc2Oc2cccc3[nH]ccc23)cc1[N+](=O)[O-] , what is its reported pKi?
6.96
